# Tested on: transactivating tegument protein VP16 (Human herpesvirus 1)
# procedure details: VP16 transactivation reporter inhibitors, counter-screen for SRC2 inhibitor project, cell-based, luminescence, single concentration (AID 652007)
# measurement setup: cell-based VP16 transactivation luciferase reporter, at 8.9 µM
Activity calls are given as the source filed them. Rule as the data show it: active = inhibition above about 36%; inactive = the rest.
Pick from active, inactive when you respond.

> print(dat)
                                   compound  class.assignment
1  Oc1ccc(-[n+]2c(-c3ccccc3)cc(-c3ccccc3)cc2-c2ccccc2)cc1          inactive
2  Cc1ccc(N2C(=O)NC(=O)C(CCc3ccccn3)(Cc3ccc(F)cc3)C2=O)cc1 (stereo not given)          inactive
3  O=C1NC2C(=CC(O)C(O)C2O)c2cc3c(c(O)c21)OCO3 (stereo not given)            active

Now look at this one.
Hi, do you know how `C[C@H]1C[C@@H](C)C(=O)[C@@H]([C@H](O)CC2CC(=O)NC(=O)C2)C1` came out in this test?
active

Every entry's value here was drawn from PubChem BioAssay.
